Data provenance is patent US9187471B2.

# Target system: human recombinant serotonin (5-Hydroxytryptamine) 5-HT6 receptor (Homo sapiens, UniProt P50406)
# Construct: expressed in transfected cells; host or cells: HeLa
# Sequence (P50406 whole entry): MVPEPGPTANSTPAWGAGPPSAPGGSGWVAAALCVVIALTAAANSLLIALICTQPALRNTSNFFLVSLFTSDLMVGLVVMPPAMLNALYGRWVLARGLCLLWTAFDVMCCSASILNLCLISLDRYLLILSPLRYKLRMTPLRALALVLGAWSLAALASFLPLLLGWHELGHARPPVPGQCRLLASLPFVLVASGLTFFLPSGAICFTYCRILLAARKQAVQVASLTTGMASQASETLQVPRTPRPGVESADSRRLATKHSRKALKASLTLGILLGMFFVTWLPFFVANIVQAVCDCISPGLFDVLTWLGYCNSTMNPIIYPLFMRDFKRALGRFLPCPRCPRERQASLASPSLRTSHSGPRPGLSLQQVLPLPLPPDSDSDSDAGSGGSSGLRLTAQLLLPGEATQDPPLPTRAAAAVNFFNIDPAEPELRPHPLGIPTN
# Assay summary: Serotonin 5-HT6 radioligand binding ([3H]LSD)
# Conditions used: compound at 0.1 μM; read-out: Inhibition of ligand binding, Serotonin 5-HT6 (percent inhibition of specific binding)
Parameter measured: inhibition at 0.1 µM (%)

{"columns": ["Structure as smiles", "Observed value"],
 "data": [
  ["Cc1ccc2c(c1)c1c(n2-c2ccc(-c3cccc4[nH]ncc34)cn2)CCN(C)C1", 15],
  ["Cc1ccc2c(c1)c1c(n2-c2cccc(-c3cn[nH]c3)c2)CCN(C)C1", 0],
  ["Cc1ccc2c(c1)c1c(n2-c2cccc(-c3ccc(C)nc3)c2)CCN(C)C1", 3],
  ["Cc1ccc2c(c1)c1c(n2-c2cccc(-c3ccc(F)nc3)c2)CCN(C)C1", 21],
  ["Cc1ccc2c(c1)c1c(n2-c2cccs2)CCN(C)C1", 74],
  ["COc1ccc(-c2cscc2-n2c3c(c4cc(C)ccc42)CN(C)CC3)cc1", 24],
  ["Cc1ccc2c(c1)c1c(n2-c2cccc(-c3cncc4ccccc34)c2)CCN(C)C1", 29],
  ["Cc1ccc2c(c1)c1c(n2-c2ccc(-c3ccc(C)nc3)cn2)CCN(C)C1", -5]
]}

----------
# Target system: human recombinant serotonin (5-Hydroxytryptamine) 5-HT5A receptor (Homo sapiens, UniProt P47898)
# Construct: expressed in transfected cells; host or cells: CHO-K1
# Sequence (P47898 whole entry): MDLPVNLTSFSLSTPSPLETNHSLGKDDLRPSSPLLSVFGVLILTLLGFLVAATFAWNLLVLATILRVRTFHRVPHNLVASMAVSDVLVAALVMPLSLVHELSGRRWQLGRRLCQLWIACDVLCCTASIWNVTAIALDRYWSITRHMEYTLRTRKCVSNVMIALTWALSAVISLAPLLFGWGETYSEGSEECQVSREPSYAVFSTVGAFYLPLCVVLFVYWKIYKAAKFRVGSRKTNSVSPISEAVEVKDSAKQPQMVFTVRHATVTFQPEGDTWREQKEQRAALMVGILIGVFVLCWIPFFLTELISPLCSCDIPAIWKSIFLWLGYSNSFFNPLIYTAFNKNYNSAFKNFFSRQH
# Assay summary: Serotonin 5-HT5A radioligand binding ([3H]LSD)
# Conditions used: compound at 0.1 μM; read-out: Inhibition of ligand binding, Serotonin 5-HT5A (percent inhibition of specific binding)
Values of inhibition at 0.1 µM greater than or equal to 30% map to true (1); values below map to false (0).

{"columns": ["Molecule", "Answer label"],
 "data": [
  ["Cc1ccc2c(c1)c1c(n2-c2ccccc2-c2ccc(C)nc2)CCN(C)C1 [Compound 59]", "true (1)"],
  ["Cc1ccc2c(c1)c1c(n2-c2ccccc2-c2cc3ccccc3s2)CCN(C)C1 [Compound No. 103]", "true (1)"],
  ["Cc1ccc2c(c1)c1c(n2-c2ccccc2-c2cccn2C)CCN(C)C1 [Compound No. 100]", "false (0)"],
  ["Cc1ccc2c(c1)c1c(n2-c2ccc(-c3cccnc3)cn2)CCN(C)C1 [Compound No. 133]", "false (0)"],
  ["Cc1ccc2c(c1)c1c(n2-c2cscc2-c2cncc3ccccc23)CCN(C)C1 [Compound 34]", "true (1)"],
  ["Cc1ccc2c(c1)c1c(n2-c2ccc(-c3cnc(N(C)C)nc3)cn2)CCN(C)C1 [Compound No. 138]", "false (0)"],
  ["Cc1ccc2c(c1)c1c(n2-c2ccccc2-c2ccc(F)nc2)CCN(C)C1 [Compound No. 84]", "false (0)"],
  ["Cc1ccc2c(c1)c1c(n2-c2ccc(-c3c(C)noc3C)cn2)CCN(C)C1 [Compound No. 137]", "true (1)"]
]}

----------
# inhibition at 1 µM per record follows
# Target system: human recombinant dopamine D2L receptor (Homo sapiens, UniProt P14416)
# Construct: expressed in transfected cells; host or cells: CHO
# Sequence (P14416 whole entry): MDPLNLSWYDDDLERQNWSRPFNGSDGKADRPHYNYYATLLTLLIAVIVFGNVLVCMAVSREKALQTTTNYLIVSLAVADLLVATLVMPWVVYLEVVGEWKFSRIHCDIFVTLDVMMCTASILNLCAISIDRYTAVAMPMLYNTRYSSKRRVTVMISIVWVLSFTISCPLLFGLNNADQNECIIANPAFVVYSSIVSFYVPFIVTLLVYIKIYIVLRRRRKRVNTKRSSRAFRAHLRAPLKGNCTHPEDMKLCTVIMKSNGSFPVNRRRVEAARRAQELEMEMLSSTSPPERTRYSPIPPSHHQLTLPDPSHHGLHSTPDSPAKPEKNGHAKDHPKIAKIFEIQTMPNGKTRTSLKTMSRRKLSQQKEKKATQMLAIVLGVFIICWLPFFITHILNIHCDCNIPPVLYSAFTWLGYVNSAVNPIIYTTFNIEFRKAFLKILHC
# Assay summary: Dopamine D2L radioligand binding ([3H]Spiperone)
# Conditions used: read-out: Dopamine D2L (1 μM), percent inhibition of specific binding; compound at 1 μM; 0.16 nM [3H]Spiperone
# Protocol: Non-specific binding was estimated in the presence of 10 μM Haloperidol. Receptor proteins were filtered and washed, the filters were then counted to determine [^3H]Spiperone specifically bound.

{"columns": ["Structure as smiles", "inhibition at 1 µM"],
 "data": [
  ["Cc1ccc2c(c1)c1c(n2-c2cccc(-c3sccc3C)c2)CCN(C)C1", "26%"],
  ["Cc1ccc2c(c1)c1c(n2-c2ccccc2-c2ccc(F)cc2)CCN(C)C1", "26%"],
  ["CC(=O)Nc1ccc(-c2cccc(-n3c4c(c5cc(C)ccc53)CN(C)CC4)c2)cn1", "20%"],
  ["CNC(=O)c1cc(-n2c3c(c4cc(C)ccc42)CN(C)CC3)cs1", "1%"]
]}
